- SYSTEM: the molecule itself
- TEST_METHOD_NOTES: AUC; sedimentation velocity (40,000 rpm) and sedimentation equilibrium (14,000 rpm); each NylC enzyme 0.34 mg ml^-1 in phosphate buffer, 20 °C; self-association of the monomer units
RECORDED_ENDPOINT: stoichiometry N

>>> endpoint_value("nylon hydrolase NylCA (wild type, Agromyces), active enzyme: alpha-beta heterodimer (enzyme, NylCA of Agromyces, alpha subunit; NylCA of Agromyces, beta subunit; source: E. coli clone (plasmid pSKRC4), purified to homogeneity as previously reported) chain 1: MNTTPVHALTDIDGGIAVDPAPRLAGPPVFGGPGNDAFDLAPVRSTGREMLRFDFPGVSIGAAHYEEGPTGATVIHIPAGARTAVDARGGAVGLSGGYDFNHAICLAGGASYGLEAGAGVSGALLERLEYRTGFAEAQLVSSAVIYDFSARSTAVYPDKALGRAALEFAVPGEFPQGRAGAGMSASAGKVDWDRTEITGQGAAFRRLGDVRILAVVVPNPVGVIMDRAGTVVRGNYDAQTGVRRHPVFDYQEAFAEQVPPVTEAGN chain 2: TTISAIVTNVRMSPVELNQFAKQVHSSMHRGIQPFHTDMDGDTLFAVTTDEIDLPTTPGSSRGRLSVNATALGAIASEVMWDAVLEAGK")
4
>>> endpoint_value("NylCp2-A^137 mutant (L137A), uncleaved precursor (enzyme, Arthrobacter, UniProt Q79F77 1-355, looked up, NylCp2 with L137A, obtained as the uncleaved precursor (36 kDa; 355 residues); source: E. coli JM109, purified (ammonium sulfate fractionation, anion-exchange, gel filtration)) MNTTPVHALTDIDGGIAVDPAPRLAGPPVFGGPGNDAFDLAPVRSTGREMLRFDFPGVSIGAAHYEEGPTGATVIHIPAGARTAVDARGGAVGLSGGYDFNHAICLAGGAGYGLEAGAGVSDALLERLEHRTGFAEAQLVSSAVIYDFSARSTAVYPDKALGRAALEFAVPGEFPQGRAGAGMSASAGKVDWDRTEITGQGAAFRRLGDVRILAVVVPNPVGVIVDRAGTVVRGNYDAQTGVRRHPVFDYQEAFAEQVPPVTEAGNTTISAIVTNVRMSPVELNQFAKQVHSSMHRGIQPFHTDMDGDTLFAVTTDEIDLPTTPGSSRGRLSVNATALGAIASEVMWDAVLEAGK")
2
>>> endpoint_value("NylCp2-G^122A^137 mutant (D122G/L137A), mixture of precursor and alpha and beta subunits (enzyme, Arthrobacter, UniProt Q79F77 1-355, looked up, NylCp2 with D122G and L137A; obtained as a mixture of the uncleaved precursor and the alpha (to N266) and beta (from T267) subunits; Written as the one-chain precursor; part of the sample was cleaved at Asn266/Thr267; source: E. coli JM109, purified (ammonium sulfate fractionation, anion-exchange, gel filtration)) MNTTPVHALTDIDGGIAVDPAPRLAGPPVFGGPGNDAFDLAPVRSTGREMLRFDFPGVSIGAAHYEEGPTGATVIHIPAGARTAVDARGGAVGLSGGYDFNHAICLAGGAGYGLEAGAGVSGALLERLEHRTGFAEAQLVSSAVIYDFSARSTAVYPDKALGRAALEFAVPGEFPQGRAGAGMSASAGKVDWDRTEITGQGAAFRRLGDVRILAVVVPNPVGVIVDRAGTVVRGNYDAQTGVRRHPVFDYQEAFAEQVPPVTEAGNTTISAIVTNVRMSPVELNQFAKQVHSSMHRGIQPFHTDMDGDTLFAVTTDEIDLPTTPGSSRGRLSVNATALGAIASEVMWDAVLEAGK")
3
